Test: Degradation of nine organochlorine pesticides by gamma irradiation in samples of P. quinquefolium (GC analysis)
Format: physicochemical
Details: 25 kGy gamma irradiation, P. quinquefolium samples, mean of three
quantity: remaining concentration of organochlorine pesticides in samples (ppm)
Answers are plain numbers, in ppm.

Known remaining concentration of organochlorine pesticides in samples results, listed for orientation:
compound | unit-spec | observed-measurement
ClC(Cl)=C(c1ccc(Cl)cc1)c1ccc(Cl)cc1 | ppm | 0.145
Clc1ccc(C(c2ccccc2Cl)C(Cl)Cl)cc1 (centres unmarked) | ppm | 0.119
ClC1=C(Cl)C2(Cl)C3C4C=CC(C4)C3C1(Cl)C2(Cl)Cl (centres unmarked) | ppm | 0.123

Quick request: remaining concentration of organochlorine pesticides in samples for each listed item, please.
1. Clc1ccc(C(c2ccc(Cl)cc2)C(Cl)Cl)cc1
2. ClC1=C(Cl)C2(Cl)C3C(Cl)C=CC3C1(Cl)C2(Cl)Cl (centres unmarked)

## Result
1. 0.147
2. 0.142

---

Assay: Concentration of marker components (ginsenosides) in P. quinquefolium samples after gamma irradiation (HPLC)
Format: physicochemical
Details: 15 kGy gamma irradiation, mean ± SD, three repeats
quantity: concentration of marker components of P. quinquefolium (ginsenoside) (mg/g)
Numbers only, in mg/g.

Known concentration of marker components of P. quinquefolium (ginsenoside) results, listed for orientation:
compound | unit-spec | observed-measurement
CC(C)=CCC[C@](C)(O[C@@H]1O[C@H](CO)[C@@H](O)[C@H](O)[C@H]1O)[C@H]1CC[C@]2(C)[C@@H]1[C@H](O)C[C@@H]1[C@@]3(C)CC[C@H](O[C@@H]4O[C@H](CO)[C@@H](O)[C@H](O)[C@H]4O[C@@H]4O[C@H](CO)[C@@H](O)[C@H](O)[C@H]4O)C(C)(C)[C@@H]3CC[C@]12C [Rd, ginsenoside Rd] | mg/g | 8.44
CC(C)=CCC[C@](C)(O[C@@H]1O[C@H](CO[C@@H]2O[C@@H](CO)[C@H](O)[C@H]2O)[C@@H](O)[C@H](O)[C@H]1O)[C@H]1CC[C@]2(C)[C@@H]1[C@H](O)C[C@@H]1[C@@]3(C)CC[C@H](O[C@@H]4O[C@H](CO)[C@@H](O)[C@H](O)[C@H]4O[C@@H]4O[C@H](CO)[C@@H](O)[C@H](O)[C@H]4O)C(C)(C)[C@@H]3CC[C@]12C [Rc, ginsenoside Rc] | mg/g | 15.08
CC(C)=CCC[C@](C)(O[C@@H]1O[C@H](CO[C@@H]2O[C@H](CO)[C@@H](O)[C@H](O)[C@H]2O)[C@@H](O)[C@H](O)[C@H]1O)[C@H]1CC[C@]2(C)[C@@H]1[C@H](O)C[C@@H]1[C@@]3(C)CC[C@H](O[C@@H]4O[C@H](CO)[C@@H](O)[C@H](O)[C@H]4O[C@@H]4O[C@H](CO)[C@@H](O)[C@H](O)[C@H]4O)C(C)(C)[C@@H]3CC[C@]12C [Rb1, ginsenoside Rb1] | mg/g | 30.59
CC(C)=CCC[C@](C)(O[C@@H]1O[C@H](CO)[C@@H](O)[C@H](O)[C@H]1O)[C@H]1CC[C@]2(C)[C@@H]1[C@H](O)C[C@@H]1[C@@]3(C)CC[C@H](O)C(C)(C)[C@@H]3[C@@H](O[C@@H]3O[C@H](CO)[C@@H](O)[C@H](O)[C@H]3O[C@@H]3O[C@@H](C)[C@H](O)[C@@H](O)[C@H]3O)C[C@]12C [Re, ginsenoside Re] | mg/g | 15.04

## Task What does the data say about its concentration of marker components of P. quinquefolium (ginsenoside)? Entry: CC(C)=CCC[C@](C)(O[C@@H]1O[C@H](CO)[C@@H](O)[C@H](O)[C@H]1O)[C@H]1CC[C@]2(C)[C@@H]1[C@H](O)C[C@@H]1[C@@]3(C)CC[C@H](O)C(C)(C)[C@@H]3[C@@H](O[C@@H]3O[C@H](CO)[C@@H](O)[C@H](O)[C@H]3O)C[C@]12C [Rg1, ginsenoside Rg1]
## Result 1.47
